meta.source: ChEMBL document CHEMBL5058577

Give Population Fragmented Nuclei (%) for every item shown.
System: Fibroblast
Assay: Multiplex assay against human fibroblast
Format: toxicity, cell-based
Details: 24 h, 10 µM, compound concentration 10 uM, replicate 2
Give bare numbers, in %.

Reference set (3 entries):
>  <Molecule>
Cl.N=C(N)NC(=O)Cc1c(Cl)cccc1Cl [GUANFACINE HYDROCHLORIDE]

>  <Result type>
Population Fragmented Nuclei (%)

>  <Unit>
%

>  <Assay result>
26

$$$$
>  <Molecule>
O=C(CCCc1ccccc1)Nc1nc2ccccc2c(=O)s1

>  <Result type>
Population Fragmented Nuclei (%)

>  <Unit>
%

>  <Assay result>
34

$$$$
>  <Molecule>
CN[C@@H](C)C(=O)N[C@H](C(=O)N1CCC[C@H]1C(=O)Nc1snnc1-c1ccccc1)C1CCCCC1

>  <Result type>
Population Fragmented Nuclei (%)

>  <Unit>
%

>  <Assay result>
33

$$$$

Report Population Fragmented Nuclei (%) for every entry below.
1. Cc1c(CC(=O)O)c2cccnc2n1Cc1ccc(S(C)(=O)=O)cc1C(F)(F)F
2. Cc1noc(-c2ccc(-c3ccc(CC(=O)O)cc3)cc2)c1NC(=O)O[C@H](C)c1ccccc1Cl
3. CCCOc1ccc2[nH]cc(C3=CCNCC3)c2n1.Cl
4. CC[C@@H](C)Nc1nc(C)nc2c(-c3ccc(OC)nc3C)c(C)nn12
5. O=C(NCCN1CCC(n2c(=O)[nH]c3cc(Cl)ccc32)CC1)c1ccc(F)cc1 [HALOPEMIDE]
6. CCc1cc2cc(NS(=O)(=O)c3ccc(C#N)cc3)ccc2n(CC)c1=O

# output
22
26
20
18
26
22

----------
System: HEK-293T
Assay: Multiplex assay against HEK293T
Format: toxicity, cell-based
Details: human, 48 h, 10 µM, compound concentration 10 uM, replicate 2
// 0 strictly below 20% in Population Tubulin-Different-Phenotype (%); 1 otherwise

>  <Compound>
Cc1noc(-c2ccc(-c3ccc(CC(=O)O)cc3)cc2)c1NC(=O)O[C@H](C)c1ccccc1Cl

>  <Tested on>
HEK-293T

>  <Category label>
1

$$$$
>  <Compound>
Cl.NCCc1ccc(O)c(O)c1 [DOPAMINE HYDROCHLORIDE]

>  <Tested on>
HEK-293T

>  <Category label>
0

$$$$
>  <Compound>
CC(C)(C)c1cc(NC(=O)Nc2ccc(-c3cn4c(n3)sc3cc(OCCN5CCOCC5)ccc34)cc2)no1 [QUIZARTINIB]

>  <Tested on>
HEK-293T

>  <Category label>
1

$$$$

Field: next compound
# input Could you tell me if the measured Population Tubulin-Different-Phenotype (%) of CC[C@@H](C)Nc1nc(C)nc2c(-c3ccc(OC)nc3C)c(C)nn12 [PEXACERFONT] reaches 20% or more?
# output 1

----------
Test system: Fibroblast
Test: Multiplex assay against human fibroblast
Format: toxicity, cell-based
Conditions: 48 h, 10 µM, compound concentration 10 uM, replicate 1
Provide the recorded Population Membrane Permeable-Phenotype (%) for the entries that follow.
Numbers only, in %.

Example cases with answers are listed next.
>  <Compound>
O=C(CCCc1ccccc1)Nc1nc2ccccc2c(=O)s1

>  <Tested on>
Fibroblast

>  <Assay result>
1

$$$$
>  <Compound>
Br.CS(=O)(=O)Nc1c(O)ccc2c1CCCC2C1=NCCN1 (stereo not drawn)

>  <Tested on>
Fibroblast

>  <Assay result>
1

$$$$
>  <Compound>
CN[C@@H](C)C(=O)N[C@H](C(=O)N1CCC[C@H]1C(=O)Nc1snnc1-c1ccccc1)C1CCCCC1 [GDC-0152]

>  <Tested on>
Fibroblast

>  <Assay result>
0

$$$$
>  <Compound>
CC(C)(C)c1cc(NC(=O)Nc2ccc(-c3cn4c(n3)sc3cc(OCCN5CCOCC5)ccc34)cc2)no1 [QUIZARTINIB]

>  <Tested on>
Fibroblast

>  <Assay result>
0

$$$$
>  <Compound>
Cc1c(CC(=O)O)c2cccnc2n1Cc1ccc(S(C)(=O)=O)cc1C(F)(F)F [FEVIPIPRANT]

>  <Tested on>
Fibroblast

>  <Assay result>
0

$$$$

List reported Population Membrane Permeable-Phenotype (%) for each of these compounds:
1. Cc1noc(-c2ccc(-c3ccc(CC(=O)O)cc3)cc2)c1NC(=O)O[C@H](C)c1ccccc1Cl
2. CCCCC(=O)N(Cc1ccc(-c2ccccc2-c2nnn[nH]2)cc1)[C@H](C(=O)O)C(C)C
3. CN1CCN(c2cc(-c3ccccc3)nc(N)n2)CC1
4. COC[C@@H](c1ccc(C(F)(F)F)cc1)N1CCN(C2(C)CCN(C(=O)c3c(C)ncnc3C)CC2)C[C@@H]1C.O=C(O)/C=C\C(=O)O [VICRIVIROC MALEATE]
5. CC(C)COc1ccc(CNC(=O)N(Cc2ccc(F)cc2)C2CCN(C)CC2)cc1 [PIMAVANSERIN]
6. CC(C)c1noc(N2CCC(COc3ccc(-c4ccc(S(C)(=O)=O)cc4)nc3)CC2)n1 [GSK-1292263]
7. Cc1sc2c(c1C)C(c1ccc(Cl)cc1)=N[C@@H](CC(=O)NCCCCCCCCNC(=O)COc1cccc3c1C(=O)N(C1CCC(=O)NC1=O)C3=O)c1nnc(C)n1-2 (stereo partly drawn)
8. C[C@H](N)COC(=O)[C@@H](CCCCN)NC(=O)Cc1c(-c2ccc3ccccc3c2)[nH]c2c1ccc1ccccc12

# output
2
0
0
0
0
0
5
0

----------
Test system: Fibroblast
Assay: Multiplex assay against human fibroblast
Assay type: toxicity, cell-based
Conditions: 24 h, 10 µM, compound concentration 10 uM, replicate 1
Result type: Total Cell Count

>  <Compound string>
CC(/C=C1\SC(=S)N(CCCC(=O)Nc2ccc(C(=O)O)c(O)c2)C1=O)=C\c1ccccc1

>  <Tested on>
Fibroblast

>  <Result type>
Total Cell Count

>  <Assay result>
119

$$$$

Required: Total Cell Count, one value per molecule below.
1. COc1ccccc1N1CCN(C[C@@H](C(=O)NC(C)(C)C)c2ccccc2)CC1.Cl.Cl
2. O=C1[C@H](Cc2ccc(O)cc2)N2C(=O)CCN(C(=O)NCc3ccccc3)[C@H]2CN1Cc1cccc2ccccc12

# output
[132, 141]

# input Entry C[C@H](N)COC(=O)[C@@H](CCCCN)NC(=O)Cc1c(-c2ccc3ccccc3c2)[nH]c2c1ccc1ccccc12 has what Total Cell Count?
# output 171

----------
System: HEK-293T
Experiment: Multiplex assay against HEK293T
Format: toxicity, cell-based
Details: human, 48 h, 1 µM, compound concentration 1 uM, replicate 1
I'd appreciate it if you could supply Population Apoptotic (%) values for the items below.
Give bare numbers, in %.

Solved entries (count: 5):
>  <Compound>
O=C(CCCc1ccccc1)Nc1nc2ccccc2c(=O)s1

>  <Unit>
%

>  <Population Apoptotic (%)>
20

$$$$
>  <Compound>
CC(C)COc1ccc(CNC(=O)N(Cc2ccc(F)cc2)C2CCN(C)CC2)cc1

>  <Unit>
%

>  <Population Apoptotic (%)>
27

$$$$
>  <Compound>
CCCOc1ccc2[nH]cc(C3=CCNCC3)c2n1.Cl

>  <Unit>
%

>  <Population Apoptotic (%)>
17

$$$$
>  <Compound>
CC[C@@H](C)Nc1nc(C)nc2c(-c3ccc(OC)nc3C)c(C)nn12

>  <Unit>
%

>  <Population Apoptotic (%)>
26

$$$$
>  <Compound>
CC(C)(C)c1cc(NC(=O)Nc2ccc(-c3cn4c(n3)sc3cc(OCCN5CCOCC5)ccc34)cc2)no1

>  <Unit>
%

>  <Population Apoptotic (%)>
21

$$$$

Respectfully, I request Population Apoptotic (%) for each entry included below.
1. CCCCC(=O)N(Cc1ccc(-c2ccccc2-c2nnn[nH]2)cc1)[C@H](C(=O)O)C(C)C
2. Cl.N=C(N)NC(=O)Cc1c(Cl)cccc1Cl [GUANFACINE HYDROCHLORIDE]
3. CC(=O)Nc1cccc2c1c(Sc1ccc(Cl)cc1)c(C)n2CC(=O)O
4. Cc1sc2c(c1C)C(c1ccc(Cl)cc1)=N[C@@H](CC(=O)NCCCCCCCCNC(=O)COc1cccc3c1C(=O)N(C1CCC(=O)NC1=O)C3=O)c1nnc(C)n1-2 (stereo partly drawn)
5. CN(C)C(=O)Cn1cc(-c2ccc(-c3cncc4ccccc34)cc2)cn1
6. CC(C)c1noc(N2CCC(COc3ccc(-c4ccc(S(C)(=O)=O)cc4)nc3)CC2)n1
7. CCCCC1=NC2(CCCC2)C(=O)N1Cc1ccc(-c2ccccc2-c2nnn[nH]2)cc1
8. Cl.NCCc1ccc(O)c(O)c1 [DOPAMINE HYDROCHLORIDE]

# output
[18, 15, 21, 55, 35, 22, 29, 19]

List reported Population Apoptotic (%) for each of these compounds:
1. Cc1onc(-c2ccccc2Cl)c1C(=O)N(C)c1ccc(Cl)cc1
2. O=C1[C@H](Cc2ccc(O)cc2)N2C(=O)CCN(C(=O)NCc3ccccc3)[C@H]2CN1Cc1cccc2ccccc12
3. CN[C@@H](C)C(=O)N[C@H](C(=O)N1CCC[C@H]1C(=O)Nc1snnc1-c1ccccc1)C1CCCCC1
4. N#Cc1c(Oc2cccc(OS(=O)(=O)CCCC(F)(F)F)c2)cccc1C(F)(F)F
5. Br.CS(=O)(=O)Nc1c(O)ccc2c1CCCC2C1=NCCN1 (stereo not drawn)

# output
21
30
31
20
12
